- protocol: Pharmacokinetic study in rats after oral and intratracheal administration of curcumin (plasma, LC-MS/MS)
- Assay type: in vivo, Sprague-Dawley rats
- test settings: male, Sprague-Dawley, rat, plasma, po, 20 mg/kg, rat plasma, p.o. curcumin 20 mg/kg; calculated using the lower limit of quantification over 6 h; read-out: AUC(0–t)
experimental endpoint: AUC(0-t)

What does the record list as AUC(0-t) for COc1cc(/C=C/C(=O)CC(=O)/C=C/c2ccc(O)c(OC)c2)ccc1O ?
< 0.0326 µM·h

====

- protocol: Pharmacokinetic study in rats after oral and intratracheal administration of curcumin (plasma, LC-MS/MS)
- Format: in vivo, Sprague-Dawley rats
- test settings: male, Sprague-Dawley, rat, plasma, inhaled or intranasal, 10 mg/kg; read-out: Tmax
experimental endpoint: Tmax
Express the reported value numerically, then name its unit.

What does the record list as Tmax for COc1cc(/C=C/C(=O)CC(=O)/C=C/c2ccc(O)c(OC)c2)ccc1O ?
3 min
